target: Retinoic acid receptor RXR-alpha (Homo sapiens) (UniProt P19793); test: OT_NURR1_NURR1RXRa_1440: Odyssey Thera (OT) 24-hour HEK293T Protein Complementation Assay for Nurr1/retinoid X receptor (RXR) (AID 2283386)
Sequence (P19793 whole entry, looked up): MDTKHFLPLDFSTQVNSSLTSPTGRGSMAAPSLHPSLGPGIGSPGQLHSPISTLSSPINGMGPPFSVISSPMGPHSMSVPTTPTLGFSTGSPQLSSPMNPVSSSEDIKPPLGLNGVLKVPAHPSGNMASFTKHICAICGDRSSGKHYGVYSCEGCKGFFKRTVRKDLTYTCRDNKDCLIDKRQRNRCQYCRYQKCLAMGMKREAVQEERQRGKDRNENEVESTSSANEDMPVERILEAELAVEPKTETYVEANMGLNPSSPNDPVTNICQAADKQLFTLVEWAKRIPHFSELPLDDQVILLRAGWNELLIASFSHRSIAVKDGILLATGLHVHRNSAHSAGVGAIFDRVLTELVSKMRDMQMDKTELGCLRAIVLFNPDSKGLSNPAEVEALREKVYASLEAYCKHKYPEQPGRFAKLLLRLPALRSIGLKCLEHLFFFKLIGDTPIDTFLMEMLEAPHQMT
Records with an inconclusive call do not appear. The source made the active and inactive calls. The calls were made as follows: active = hit-call score of the fitted dose curve at least 0.9, where 1 is the maximum; inconclusive = response in the unintended direction; inactive = score below 0.9.
Entry note: the call must match one of yes (1) (active), no (0) (inactive)

The following compounds have reported results that may help.
Compound: Oc1ccc(-c2ccccc2)c(Cl)c1
Assigned Category: yes (1)
//
Compound: CC(=O)/C=C/C1C(C)=CCCC1(C)C (stereo unspecified)
Assigned Category: no (0)
//
Compound: CCCCCC(=O)OCC
Assigned Category: no (0)
//
Compound: N#Cc1ccc(C(c2ccc(C#N)cc2)n2cncn2)cc1
Assigned Category: no (0)
//
Compound: CC(CCC(=O)O)(c1ccc(O)cc1)c1ccc(O)cc1
Assigned Category: no (0)

Enquiry: Dear colleague, could you share the recorded outcome for CN(C)c1ccc2nc3ccc(=[N+](C)C)cc-3sc2c1 when you have a moment?
Return: yes (1)

Enquiry: // param item: CCOC(=O)C1=NOC(c2ccccc2)(c2ccccc2)C1 ; yields the recorded call
Return: no (0)

Enquiry: Recorded test outcome, item CCCCNC(=S)NCCCC
Return: no (0)

Enquiry: Dear all, I need the recorded test outcome for CC1(C)[C@@H]2CC[C@@]1(C)C(=O)C2 , thank you.
Return: no (0)

Enquiry: Entry C=C(C)C1CC=C(C)CC1 (stereo unspecified) : call = ?
Return: no (0)

Enquiry: // outcome(item) with item = C/C=C/C=C/CCCCCCCO
Return: yes (1)
